# PROTOCOL SUMMARY: yeast display, Sf9 membrane polyspecificity reagent, FACS + sequencing; frameworks hold sequencing errors
EXPERIMENTAL READOUT: polyreactivity (PSR sort gate)

// solved cases for polyreactivity (PSR sort gate) follow
QVQLVESGGGLVQAGGSLRLSCAASGSTFEFNDMGRYRPAPGKERELVASIRHSDGSRYYADSVKGRFTISRDNAKNTVYLQMIILKPEDTAVYDCNKAFQWSGGQVSYDYWGQGTQVTVSS
low polyreactivity
QVQLVESGGGLVQAGGSLRLSCAASGSILQYKAMGWYRQAPGKERELVADITSSGGSTYYADSVKGRFTISRDNAKYTVSLQMNSLKPEDTAVYYFAKDTHWAYYWGQGTQVTVSS
low polyreactivity
QVQLVESGGGLVQAGGSLRLSCAASGFTFEKYAMGWYRQAPGHERELVASISWSGGRTRYADSVKGRFTISRDNAKNTVYLQMNSLTPEDTAVDYCAASYRYFGRSTVRYDYWGQGTQVTVSS
high polyreactivity
QVQLVESGGGLVQAGGSLRLSCAASGRIFSRYAMGWYRQAPGKERELVAAIRSNGGRTYYADSVKGRFTISRDNAKNTVYLQMNSLKPEDTAVYYCAAAGGGKVSYRDYDYWGQGTQVTVSS
high polyreactivity

Here's the next entry for you.
Requested read-out: polyreactivity (PSR sort gate). Entry: "QVQLVESGGGLVQAGGSLRLSCAASGNTLRYNVMGWYRQAPGKERELDAAISGGGSTSYADSVKGRFTISRDNAKNTVYLQMNSLKPEDTAVYYCAKRSFVGGRGRDSDYWGQGSQVTVSS" low polyreactivity

* * *

# PROTOCOL SUMMARY: yeast display, Sf9 membrane polyspecificity reagent, FACS + sequencing; frameworks hold sequencing errors
EXPERIMENTAL READOUT: polyreactivity (PSR sort gate)

// solved cases for polyreactivity (PSR sort gate) follow
QVQLVESGGGLVQAGGSLRLSCAASGRIFAAYAMGWYRQAPGKERELVAGISRGGRTYYADSVKGRFTISRDNAKNTVYLQMNSLKPEDTAVYYCNKAPSWWDVRVPFDYWGQGTQVTVSS
low polyreactivity
QVQLVESGVRLVQAGGSLRLSCAASGRTLKYNAMGWYIQAPGKERELVAAISYSGSSTYYADSVRGRFTISRDNAKNTVYLQMNSLKPEDTAVYYFNTARPTAAYDYWGQGTQVTVSS
low polyreactivity
QVQLQESGGRQVQAGGSLRLSCAASGSNSYASGMGWYRQAPRKEREFVARIDPGAITNYADSVKGRFTISHDNAQNTVYLQMKSLKPEDNAVYYCAARVSTTDSRRILRKYLYYVHFDYWGQGTQLTVSS
high polyreactivity
QVQLVESGGGLVQAGGSLRLSCAASGSTFTVYAMGWYRQAPGKERELVAAISWSGGSTYYADSVKGRFTISRDNAKNTVYLQMNSLKPEDTAVYYCAVVIYWRTGEYDYWGQGTQVTVSS
low polyreactivity
QVQLVESCGGLVQAGGSLRLSCAASGRTFNSYAIGWYRNAPGKERELVAAISWIGGSTYYADSVKGRFTISRDNAKNTVYLQMNSLKPEDTAVYYCAADSYRFYSGYYYWGQGTQVTVSS
low polyreactivity

For each of the items listed, what is its polyreactivity (PSR sort gate)?
1. QVQQQESGGGLVQAGGSLRLSCAASGTILYSLGMGWYRQAPGKRREFVASITWGTTTNYAESVKGRFTISRDNAKNTVYPQMNSLKPEDTAVYYCNKSSTGWTSTYDYWGQGTQVTVSS
2. QVQLVESGGGLVQAGGSLRLSFAASGSIFPVYAMGWYKQAPGKERELVAAITTAGRTYYADSVKGRFTISRDNAKNTVYLQMNSLKPEDTAVYYCNARSRKVLTVDGGYWGQGTQVTVSS
3. QDQLVESGGGLVQAGGSLRLICAASGSIFDFYTMGWYRQAPGKERELVAAITYSGGRTYYADSVKGRFTISRDNAKNTVYLQMNSLKPEDTAVYYCAASTGSSAYDDYWGQGTQVTVSS
4. QVQLVESGGGVVQAGGSLRLSGAASGITFSVNAMGWYRPAPGKEREFVAAISSSGGSTYYADSVKGRFTISRDNAKNTVYLQMNSLKPEDTAVYYCAVDYYSYYYEDDYWGQGTQVTVSS
5. QVQHVESGGGLVQARGSLRLSCAASGLTFNTYAMGWYRQAPGQDRELVAAISRRGSRTYYADSVKGRFTISRDNAKNTVYLQMNSLNREDTAVYYCAAPRASGYYWGQGTQVTVSS
6. QVQLVESGGGLVQAVGSLRLSCAASGRIFRYYAMGWYRQATGKESELVAAISDSSGYTYYADSVKGRFTISRDNAKNTVYLQMISLKPEDTAVYYCRDYLGSGYYYWGQGTQVTVSS

low polyreactivity
high polyreactivity
high polyreactivity
high polyreactivity
high polyreactivity
high polyreactivity

The measured values listed here are drawn from the nanobody polyreactivity screen of Harvey et al. (2022).
